assay: qHTS assay to identify small molecule antagonists of the progesterone receptor (PR) signaling pathway - cell viability counter screen (AID 1346798); settings: PR-UAS-bla HEK293T viability, CellTiter-Glo luminescence, 16 h; series mostly up to 92.4 µM; note: nearly all actives have a fitted effect of over 50% in size
Results filed as inconclusive are left out. Activity calls are given as the source filed them. Calls come from the whole dose curve; as a rule, active = well fitted cell-killing curve with a large enough effect in the repeat runs; inconclusive = weak or mixed curves, or effect the other way; inactive = no such curve, though single readings can be large or run the other way.
Form entry, call: pick from TRUE (active), FALSE (inactive)

Ask: Returns: the outcome recorded for `ClC(Cl)(Cl)c1ccccc1` in this assay.
Result: FALSE

Ask: And what about the molecule `COP(=S)(OC)SCn1nnc2ccccc2c1=O` ?
Result: FALSE

Ask: Another: OC(c1ccc(Cl)cc1)(c1cncnc1)c1ccccc1Cl (centres undefined)
Result: FALSE

Ask: Note, next up: `Nc1ncn[nH]1`
Result: FALSE

Ask: Likewise for CCOP(=O)(O)OCC (tested in a mixture with another compound) ?
Result: FALSE

Ask: Another molecule to check: `N#CCCCCC#N`
Result: FALSE

Ask: Next up: `N#CC(c1ccccc1)c1ccccc1`
Result: FALSE

Ask: Now try COP(=O)(NC(C)=O)SC (centres undefined) .
Result: FALSE

Ask: Could you do the same for `O=C(O)c1nn(Cc2ccc(Cl)cc2Cl)c2ccccc12` , please?
Result: FALSE

Ask: Cool, now CC1(C)C(C(=O)OC(C#N)c2cccc(Oc3ccccc3)c2)C1(C)C (centres undefined)
Result: FALSE

Ask: Follow-up entry: `CC[n+]1c(-c2ccccc2)c2cc(N)ccc2c2ccc(N)cc21`
Result: TRUE

Ask: Now consider `CC1(C)Cc2cccc(O)c2O1` and answer again.
Result: FALSE

Ask: And `CCOP(=S)(OCC)OP(=S)(OCC)OCC` ?
Result: FALSE

Ask: Then this molecule: `NN=C(N)N`
Result: FALSE
